Test system: NanoLuc luciferase (NLuc)
TEST NAME: normalised percent inhibition of luminescence (vs positive and negative controls); higher = stronger inhibition
SETTINGS: metal salt concentration 0.002 mM; screening conditions buffer
OUTCOME MEASURE: normalised percent inhibition (%)
Report as a plain number; the unit % is understood.

Incoming: NanoLuc luciferase (NLuc) / normalised percent inhibition / O=[N+]([O-])[O-].O=[N+]([O-])[O-].[Zn+2] [zinc nitrate] : value?
Outgoing: 0.728

Incoming: Test system NanoLuc luciferase (NLuc); read-out normalised percent inhibition; what value for [Cl][Pt-2]([Cl])([Cl])[Cl].[K+].[K+] [potassium tetrachloroplatinate(II)] ?
Outgoing: 6.88

Incoming: State its normalised percent inhibition on NanoLuc luciferase (NLuc): O=[N+]([O-])[O-].O=[N+]([O-])[O-].[Cu+2] [copper(II) nitrate]
Outgoing: 14.1

Incoming: Give normalised percent inhibition (NanoLuc luciferase (NLuc)) of the following compound: [Cl][Sn][Cl] [tin(II) chloride]
Outgoing: 1.6

Incoming: Kindly state the measured normalised percent inhibition obtained for CC#N.CC#N.CC#N.CC#N.F[B-](F)(F)F.[Cu+] [tetrakis(acetonitrile)copper(I) tetrafluoroborate] with NanoLuc luciferase (NLuc).
Outgoing: 0.453

Incoming: Request body: readout normalised percent inhibition, system NanoLuc luciferase (NLuc), query O=[N+]([O-])[O-].O=[N+]([O-])[O-].O=[N+]([O-])[O-].[Ga+3] [gallium(III) nitrate] . Return the value.
Outgoing: 3.99

Incoming: Record [Cl][Fe]([Cl])[Cl] [iron(III) chloride] : what is its normalised percent inhibition with NanoLuc luciferase (NLuc)?
Outgoing: 0.19

Incoming: Form: Entry = O=[N+]([O-])[O-].O=[N+]([O-])[O-].[Cd+2] [cadmium nitrate] | System = NanoLuc luciferase (NLuc) | normalised percent inhibition = ____
Outgoing: 4.83

Incoming: Give NanoLuc luciferase (NLuc) normalised percent inhibition for O=[N+]([O-])[O-].O=[N+]([O-])[O-].[Pb+2] [lead(II) nitrate]
Outgoing: -1.02

Incoming: Can you look up normalised percent inhibition on NanoLuc luciferase (NLuc) for O=S(=O)([O-])[O-].[Fe+2] [iron(II) sulfate] ?
Outgoing: -6.27

Incoming: Lookup: normalised percent inhibition / NanoLuc luciferase (NLuc) / O=[N+]([O-])[O-].[Ag+] [silver nitrate]
Outgoing: 20.8

Incoming: Form field: normalised percent inhibition recorded for [Cl][Fe][Cl] [iron(II) chloride] with NanoLuc luciferase (NLuc) (enter value)
Outgoing: -2.42
